Target: Nuclear receptor subfamily 1 group I member 2 (Rattus norvegicus) (UniProt Q9R1A7)
Sequence (Q9R1A7 whole entry, looked up): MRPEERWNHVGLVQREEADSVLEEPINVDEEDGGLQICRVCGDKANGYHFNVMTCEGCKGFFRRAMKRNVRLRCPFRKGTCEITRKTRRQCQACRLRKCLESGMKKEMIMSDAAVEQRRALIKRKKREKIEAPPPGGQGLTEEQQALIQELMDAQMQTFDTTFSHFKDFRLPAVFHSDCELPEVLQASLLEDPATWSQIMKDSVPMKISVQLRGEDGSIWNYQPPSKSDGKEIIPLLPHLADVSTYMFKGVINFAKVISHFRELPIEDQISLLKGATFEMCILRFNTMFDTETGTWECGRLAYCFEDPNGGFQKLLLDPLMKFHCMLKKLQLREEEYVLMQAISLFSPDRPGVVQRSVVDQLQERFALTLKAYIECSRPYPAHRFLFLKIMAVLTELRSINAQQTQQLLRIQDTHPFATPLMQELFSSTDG
Assay: qHTS assay for small molecule activators of the rat pregnane X receptor (rPXR) signaling pathway (AID 651751); also: 0% is about no effect
Conditions: rPXR reporter cells, luciferase (One-Glo), 24 h
Here, each record is paired with measured max response data.
EXPERIMENTAL ENDPOINT: max response (%)

INSERT INTO assay_data (molecule, numeric_value) VALUES
  ('Cc1ccccc1C(OCCN(C)C)c1ccccc1 (configuration not stated)', 4.25),
  ('CC(C)(Sc1ccc(CCN(CCCCC2CCCCC2)C(=O)NC2CCCCC2)cc1)C(=O)O', -3.94),
  ('CNC[C@H](O)c1cccc(O)c1', 1.25),
  ('Cc1c(C)c2c(c(C)c1O)CCC(C)(COc1ccc(CC3SC(=O)NC3=O)cc1)O2 (configuration not stated)', -12.9),
  ('NC[C@H](O)c1ccc(O)c(O)c1', 2.15),
  ('O=C1CCC(N2C(=O)c3ccccc3C2=O)C(=O)N1 (configuration not stated)', 1.73),
  ('NS(=O)(=O)c1cc2c(cc1Cl)NC=NS2(=O)=O', -2.2);
